molecular target: LlFpg (Lactococcus lactis subsp. cremoris); construct: made in house; host or cells: E. coli BH540 (fpg defective); assay: LlFpg 8-oxoG-DNA glycosylase/AP lyase activity assay (Urea-PAGE radioassay); assay type: biochemical; conditions: IC50app^A (Fpg/Nei enzyme catalysis) LlFpg, catalytic activity at 37 °C; compound stock (redox mixture) in DMSO; 20 nM 8-oxoG:C 24-mer, 2 nM LlFpg
Sequence (P42371 2-273): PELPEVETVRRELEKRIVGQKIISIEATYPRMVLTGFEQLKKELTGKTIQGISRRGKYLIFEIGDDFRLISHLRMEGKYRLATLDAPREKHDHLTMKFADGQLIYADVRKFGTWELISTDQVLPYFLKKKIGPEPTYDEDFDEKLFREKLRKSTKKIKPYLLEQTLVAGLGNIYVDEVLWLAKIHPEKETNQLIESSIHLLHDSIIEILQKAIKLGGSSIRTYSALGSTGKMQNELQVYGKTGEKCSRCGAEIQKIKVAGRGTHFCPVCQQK
Listed compounds paired with reported IC50

Report IC50 for O=c1[nH]c2[nH]c(=S)[nH]c(=O)c2[nH]1 [TX14, 2-thio-6,8-dioxopurine] please. 28 µM

--- query ---
Report IC50 for Nc1ncnc2[nH]c(S)nc12 [TX27] please. 20 µM

###

molecular target: LlFpg/DNA complex C1 (Lactococcus lactis subsp. cremoris); construct: made in house; host or cells: E. coli BH540 (fpg defective); assay: EMSA, Fpg DNA binding to 14-mer [THF:C] duplex, complex C1 (lesion recognition complex, Fpg/DNA 1/1); settings: IC50app^B (Fpg DNA binding) C1, DNA binding at 4 °C; 0.1 nM 14-mer [THF:C], 0.25 nM Fpg; preformed complex
reported.property: pIC50
Keep it numeric: pIC50 is minus log10 of the concentration in mol/L.

// lookup pIC50 | system=LlFpg/DNA complex C1 (Lactococcus lactis subsp. cremoris) | key= O=c1[nH]c2[nH]c(=S)[nH]c(=O)c2[nH]1 4.60

--- query ---
// lookup pIC50 | system=LlFpg/DNA complex C1 (Lactococcus lactis subsp. cremoris) | key= Nc1ncnc2[nH]c(S)nc12 4.35

###

molecular target: LlFpg/DNA complex C1 (Lactococcus lactis subsp. cremoris, UniProt P42371); construct: made in house; host or cells: E. coli BH540 (fpg defective); assay: EMSA, Fpg DNA binding to 14-mer [THF:C] duplex, complex C1 (lesion recognition complex, Fpg/DNA 1/1); conditions: homogeneous reduced or disulfide form in 50 mM sodium phosphate; 14-mer [THF:C]; read-out: IC50^B (Fpg DNA binding), homogeneous redox forms
Listed compounds paired with reported pIC50
Keep it numeric: pIC50 is minus log10 of the concentration in mol/L.

Report pIC50 for O=c1[nH]c2nc(SSc3nc4[nH]c(=O)[nH]c4c(=O)[nH]3)[nH]c(=O)c2[nH]1 [TX14Ox] please. 4.59

--- query ---
Report pIC50 for O=c1[nH]c(SSc2nc3[nH]cnc3c(=O)[nH]2)nc2[nH]cnc12 [Compound 2TXOx] please. 4.47

###

molecular target: mvNei1 (Acanthamoeba polyphaga mimivirus, UniProt Q5UQ00); construct: 6His (C); made in house; host or cells: E. coli Rosetta2 (DE3); experiment: mvNei1 DNA glycosylase/AP lyase activity assay on DHU:G 24-mer duplex; format: biochemical
Sequence (Q5UQ00 whole entry): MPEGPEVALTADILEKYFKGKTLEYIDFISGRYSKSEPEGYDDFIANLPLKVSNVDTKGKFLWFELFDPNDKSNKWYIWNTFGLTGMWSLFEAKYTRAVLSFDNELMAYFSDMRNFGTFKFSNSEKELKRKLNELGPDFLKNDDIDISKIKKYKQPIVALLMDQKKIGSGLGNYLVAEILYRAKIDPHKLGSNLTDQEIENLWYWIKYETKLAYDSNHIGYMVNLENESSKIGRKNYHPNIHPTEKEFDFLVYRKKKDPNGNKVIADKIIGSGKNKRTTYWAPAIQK
reported.property: pIC50
Keep it numeric: pIC50 is minus log10 of the concentration in mol/L.

Report pIC50 for Nc1ncnc2[nH]c(S)nc12 please. 3.56

###

molecular target: LlFpg/DNA complex C2 (Lactococcus lactis subsp. cremoris, UniProt P42371); construct: made in house; host or cells: E. coli BH540 (fpg defective); assay: EMSA, Fpg DNA binding to 14-mer [THF:C] duplex, non-specific complex C2 (Fpg/DNA 2/1); conditions: [1/1] molar ratio TCEP/compound (1 mM each); Figure S6
Sequence (P42371 2-273 limits assumed, one chain of several): as the sequence (P42371 2-273) above
reported.property: effect on stability of preformed complex C2 in the presence of TCEP

// lookup effect on stability of preformed complex C2 in the presence of TCEP | system=LlFpg/DNA complex C2 (Lactococcus lactis subsp. cremoris, UniProt P42371) | key= O=c1[nH]c2[nH]c(=S)[nH]c(=O)c2[nH]1 [TX14, 2-thio-6,8-dioxopurine] moderate effect

What would you report for O=c1[nH]c(=S)[nH]c2[nH]c(=S)[nH]c12 [TX19] ? moderate effect

What would you report for Nc1ncnc2[nH]c(S)nc12 [TX27] ? strongly destabilized

What would you report for O=c1[nH]c(=S)[nH]c2nc[nH]c12 [Compound 2TX, 2-thioxanthine, reference compound] ? moderate effect

***
// lookup effect on stability of preformed complex C2 in the presence of TCEP | system=LlFpg/DNA complex C2 (Lactococcus lactis subsp. cremoris, UniProt P42371) | key= FC(F)(F)c1nc(S)c2nc[nH]c2n1 [TX13, 2-trifluoromethyl-6-thiopurine] strongly destabilized
